tested on: human monocyte-derived macrophages (M0); assay: cell shape (eccentricity) Z-score vs DMSO control; higher = more elongated, M2-like morphology; conditions: 20 µM; 24 h; macrophage state: M0 (M-CSF)
Over roughly 3,800 compounds, “cell shape (eccentricity) Z-score vs DMSO control” has its median near 1.1; the lowest 2% begin near -4.7. Shown is part of a subset that was picked to be rich in the lowest values.
Each entry below carries its reported cell shape (Z-score).
measurement kind: cell shape (Z-score)

>>> df
                                    compound                      experimental_target  recorded_measurement
 0  CCc1cc(C(C)=O)c(O)cc1OCCCCCC(C)(C)c1nnn[nH]1  human monocyte-derived macrophages (M0)                  1.49
 1        COc1cc(C)c2c(=O)cc(-c3ccccc3)oc2c1  human monocyte-derived macrophages (M0)                  1.41
 2  O=C(NOCC(O)CO)c1cc(Br)c(F)c(F)c1Nc1ccc(I)cc1F (stereo unspecified)  human monocyte-derived macrophages (M0)                -0.375
 3  CC[N+](CC)(CC(=O)Nc1c(C)cccc1C)Cc1ccccc1  human monocyte-derived macrophages (M0)                  1.74
 4         COCCCCC(=NOCCN)c1ccc(C(F)(F)F)cc1  human monocyte-derived macrophages (M0)                 -14.7
 5  Cc1c(-c2ccnc(Nc3ccc(N4CCNCC4)cc3)n2)sc(=O)n1C  human monocyte-derived macrophages (M0)                  9.91
 6  COc1cc(C(=O)N2CCC(N3CCN(C)CC3)CC2)ccc1Nc1ncc2c(n1)N(C)c1ccccc1C(=O)N2C  human monocyte-derived macrophages (M0)                  8.88
 7  CCOC(=O)C1=C(C)NC(C)=C(C(=O)OC)C1c1cccc([N+](=O)[O-])c1 (stereo unspecified)  human monocyte-derived macrophages (M0)                  1.64
 8            Cc1cccc(C)c1NC(=O)C[N+](C)(C)C  human monocyte-derived macrophages (M0)                 -4.98
 9  CC(=O)C(C#N)C(=O)Nc1cc(Br)ccc1Br (stereo unspecified)  human monocyte-derived macrophages (M0)                 -5.16
10  O=C(c1ccc(Nc2nccc(-c3cc4ccccc4s3)n2)cc1)N1CCC(N2CCCC2)CC1  human monocyte-derived macrophages (M0)                 -4.98

The values you see were collected from the supplement of paper PMC7858590.
